Recorded CC50 values for a group of molecules are listed next.
test.method.notes: Cytotoxicity against human akata cells by DNA hybridization assay
Type: cell-based
quantity: CC50 (µM)

{"molecule": "Nc1ncnc2c1ncn2/C=C1\\CC1(CO)CF (stereo not given)", "unit.of.measurement": "µM", "rel": "=", "reading": 53.6}
{"molecule": "Nc1nc2c(ncn2/C=C2/CC2(CO)CF)c(=O)[nH]1 (stereo not given)", "unit.of.measurement": "µM", "rel": "=", "reading": 59.7}
{"molecule": "Nc1nc2c(ncn2/C=C2/CC2(CO)CO)c(=O)[nH]1 [FILOCICLOVIR]", "unit.of.measurement": "µM", "rel": ">", "reading": 100}
{"molecule": "Nc1nc2c(ncn2/C=C2\\CC2(CO)CF)c(=O)[nH]1 (stereo not given)", "unit.of.measurement": "µM", "rel": "=", "reading": 64.1}
{"molecule": "Nc1ncnc2c1ncn2/C=C1/CC1(CO)CF (stereo not given)", "unit.of.measurement": "µM", "rel": "=", "reading": 55.7}
